Origin of values: PubChem BioAssay (NCATS)

Method: qHTS profiling for inhibitors of Plasmodium falciparum proliferation (AID 504749);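 also: 0% = DMSO vehicle and full inhibition = artemisinin control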
Setup conditions: P. falciparum in erythrocytes, SYBR Green DNA, 72 h; at 28.7 µM (top of the series); parasite line B
Inconclusive results are not listed.
Quantity kind: activity, negative = inhibition (%)
Write the value in % as a bare number.

[in] Annotate the molecule Cc1ccccc1OCC(O)CNCCOc1ccc(C(N)=O)cc1 (stereo not drawn) with its measured activity, negative = inhibition.
[out] 8.46

[in] Give me measured activity, negative = inhibition, please, for this molecule: C[C@H]1C[C@H]2[C@@H]3CCC4=CC(=O)C=C[C@]4(C)[C@@]3(F)[C@@H](O)C[C@]2(C)[C@@]1(O)C(=O)CO
[out] 5.52

[in] Give the value of activity, negative = inhibition reported for the following: C#CCOc1ccc2c(C)cc(=O)oc2c1
[out] 5.62

[in] Tell me measured activity, negative = inhibition for NC(=O)c1ncn(C2OC(CO)C(O)C2O)n1 (stereo not drawn) please.
[out] -20.5

[in] Answer with the recorded activity, negative = inhibition for the molecule listed here: COC(F)(F)C(Cl)Cl
[out] -4.97

[in] # return recorded activity, negative = inhibition for input CCCCCCCC(=O)O
[out] 9

[in] Tell me measured activity, negative = inhibition for O=C(O)c1cc(O)c2c(c1)[O][Bi][O]2 please.
[out] 14.4

[in] Given CCCCC(C)(O)C/C=C/[C@H]1[C@H](O)CC(=O)[C@@H]1CCCCCCC(=O)OC (stereo partly drawn) , respond with its activity, negative = inhibition.
[out] 3.16

[in] Provide measured activity, negative = inhibition value, entry: O=C(O)CN(CCN(CC(=O)O)CC(=O)O)CC(=O)O
[out] 14.3

[in] Tell me activity, negative = inhibition reported for CC1=C(/C=C/C(C)=C/C=C/C(C)=C/C=C/C=C(C)/C=C/C=C(C)/C=C/C2=C(C)C(=O)CCC2(C)C)C(C)(C)CCC1=O
[out] 4.39

[in] Supply recorded activity, negative = inhibition for CCCC(=O)Nc1ncnc2c1ncn2C1OC2COP(=O)(O)OC2C1OC(=O)CCC (stereo not drawn) here.
[out] -4.45

[in] Give a short answer stating reported activity, negative = inhibition for COC(=O)[C@H]1[C@H]2CC3c4[nH]c5ccccc5c4CCN3C[C@@H]2CC[C@@H]1O (stereo partly drawn) .
[out] 13.8

[in] Please look at this molecule and report its activity, negative = inhibition: CCCCCCCCCCCCCCCC(=O)OCC(COC(=O)CCCCCCCCCCCCCCC)OC(=O)CCCCCCCCCCCCCCC
[out] 9.45

[in] Given the molecule C[C@]12CCC(=O)C=C1CC[C@@H]1[C@@H]2[C@@H](O)C[C@@]2(C)[C@H]1CC[C@]2(O)C(=O)COP(=O)(O)O , write its reported activity, negative = inhibition.
[out] -7.41

[in] Please report the measured activity, negative = inhibition for O=S(=O)(O)O
[out] 2.3

[in] Report activity, negative = inhibition for Cc1ccccc1
[out] 0.119

[in] Tell me measured activity, negative = inhibition for O=C1CSC2(CCN(CCCN3c4ccccc4Sc4ccc(Cl)cc43)CC2)N1 please.
[out] -28.1

[in] Indicate the recorded activity, negative = inhibition value for this molecule: CC(Cc1ccc(O)c(O)c1)C(C)Cc1ccc(O)c(O)c1 (stereo not drawn)
[out] -26.4

[in] Input O=CCCCC=O , output reported activity, negative = inhibition.
[out] 0.568

[in] Please look at this molecule and report its activity, negative = inhibition: CC(C(=O)O)c1ccc(N2Cc3ccccc3C2=O)cc1 (stereo not drawn)
[out] 10.3

[in] Give the reported activity, negative = inhibition for this molecule. Nc1ncnc2c1ncn2[C@@H]1O[C@H](COP(=O)(O)OP(=O)(O)OP(=O)(O)O)[C@@H](O)[C@H]1O
[out] 9.47

[in] Query activity, negative = inhibition for O=C(O)c1cc(=O)c2c3nc4ccccc4oc-3cc(=O)c2[nH]1
[out] -11.6

[in] Could you please provide reported activity, negative = inhibition for CCCCCC(CC)COC(=O)CC(C(=O)OCC(CC)CCCC)S(=O)(=O)O (stereo not drawn) ? Thanks!
[out] 3.54
